Cited source for all entries: patent US8906868B2

Consider the following compounds and their measured MIC readings.
Test system: ECM6009 aac(3)-II
Test: microbe, parasite or virus in culture
Format: cell-based, Escherichia coli
Settings: Escherichia coli, read-out: Compound MIC on Bacterial Strains: ECM6009 aac(3)-II
endpoint.name: MIC

>>> reported("CN[C@@H]1C(O)[C@@H](OC2C(O)C(O[C@H]3O[C@H](CN)CCC3N)[C@@H](N)C[C@H]2NC(=N)CO)OCC1(C)O (stereo partly drawn)")
"> 8 µg/mL"
>>> reported("CN[C@@H]1[C@@H](O)[C@@H](O[C@@H]2[C@@H](O)[C@H](O[C@H]3O[C@H](CNCCO)CC[C@H]3N)[C@@H](N)C[C@H]2NC(=O)C2(O)CNC2)OC[C@]1(C)O")
"1 to 8 µg/mL"
>>> reported("CNC[C@@H]1CCC(N)[C@@H](OC2C(O)C(O[C@H]3OCC(C)(O)[C@H](NC)C3O)[C@H](NC(=O)[C@@H](O)C(O)CN)C[C@@H]2N)O1 (stereo in doubt)")
"1 to 8 µg/mL"

---

System: Escherichia coli (ATCC 25922)
Assay: MIC, broth microdilution
Settings: Escherichia coli, ATCC25922, read-out: Compound MIC on Bacterial Strains: E. coli ATCC 25922
Consider the following molecules and their measured MIC readings.
endpoint.name: MIC

>>> reported("CN[C@@H]1[C@@H](O)[C@@H](O[C@@H]2[C@@H](O)[C@H](O[C@H]3O[C@H](CNCCO)CC[C@H]3N)[C@@H](N)C[C@H]2NC(=O)[C@@H](O)CN)OC[C@]1(C)O")
"< 1 µg/mL"
>>> reported("CN[C@@H]1[C@@H](O)[C@@H](O[C@@H]2[C@@H](O)[C@H](O[C@H]3O[C@H](CNCC(O)CO)CC[C@H]3N)[C@@H](N)C[C@H]2NC(=O)[C@@H](O)CCN)OC[C@]1(C)O (some centres unmarked)")
"< 1 µg/mL"
>>> reported("CN[C@@H]1[C@@H](O)[C@@H](O[C@@H]2[C@@H](O)[C@H](O[C@H]3O[C@H](CNCCO)CC[C@H]3N)[C@@H](N)C[C@H]2NC(=O)[C@@H](O)CNN)OC[C@]1(C)O")
"1 to 8 µg/mL"
>>> reported("CN[C@@H]1[C@@H](O)[C@@H](O[C@@H]2[C@@H](O)[C@H](O[C@H]3O[C@H](CNCCO)CC[C@H]3N)[C@@H](N)C[C@H]2NC(=O)[C@@H](O)CCN)OC[C@]1(C)O")
"< 1 µg/mL"
>>> reported("CN[C@@H]1C(O)[C@@H](OC2C(O)C(O[C@H]3O[C@H](CN)CCC3N)[C@@H](N)C[C@H]2NC(=O)[C@@H](O)[C@@H](O)CN)OCC1(C)O (some centres unmarked)")
"< 1 µg/mL"

---

Tested on: Escherichia coli (ATCC 25922)
Assay: MIC, broth microdilution
Details: Escherichia coli, ATCC25922, read-out: Compound MIC on Bacterial Strains: Escherichia coli ECM6000 ATCC 25922
Consider the following molecules and their measured MIC readings.
endpoint.name: MIC

>>> reported("CN[C@@H]1[C@@H](O)[C@@H](O[C@@H]2[C@@H](O)[C@H](O[C@H]3O[C@H](CNCCO)CC[C@H]3N)[C@@H](N)C[C@H]2NC(=O)[C@@H](O)CCCN)OC[C@]1(C)O")
"1 to 8 µg/mL"
>>> reported("CN[C@@H]1[C@@H](O)[C@@H](O[C@@H]2[C@@H](O)[C@H](O[C@H]3O[C@H](CNCCO)CC[C@H]3N)[C@@H](N)C[C@H]2NC(=O)[C@@H](O)CNN)OC[C@]1(C)O")
"1 to 8 µg/mL"
>>> reported("CN[C@@H]1[C@@H](O)[C@@H](O[C@@H]2[C@@H](O)[C@H](O[C@H]3O[C@H](CNCCO)CC[C@H]3N)[C@@H](N)C[C@H]2NC(=O)C2(O)CNC2)OC[C@]1(C)O")
"< 1 µg/mL"
>>> reported("CN[C@@H]1[C@@H](O)[C@@H](O[C@@H]2[C@@H](O)[C@H](O[C@H]3O[C@H](CNCCO)CC[C@H]3N)[C@@H](N)C[C@H]2NC(=O)[C@@H](O)CCN)OC[C@]1(C)O")
"< 1 µg/mL"
